- Target of assay: T1, KAP1 RBCC (S33-K434), purified (human, UniProt Q13263 33-434)
- T1 construct: KAP1 (TRIM28), human, residues S33-K434, RBCC domain; also called KAP1 S33-K434; Fragment 1; source: E. coli BL-21 CodonPlus (DE3)-RP, purified (Ni-NTA, Mono Q)
- T1 sequence (Q13263 33-434): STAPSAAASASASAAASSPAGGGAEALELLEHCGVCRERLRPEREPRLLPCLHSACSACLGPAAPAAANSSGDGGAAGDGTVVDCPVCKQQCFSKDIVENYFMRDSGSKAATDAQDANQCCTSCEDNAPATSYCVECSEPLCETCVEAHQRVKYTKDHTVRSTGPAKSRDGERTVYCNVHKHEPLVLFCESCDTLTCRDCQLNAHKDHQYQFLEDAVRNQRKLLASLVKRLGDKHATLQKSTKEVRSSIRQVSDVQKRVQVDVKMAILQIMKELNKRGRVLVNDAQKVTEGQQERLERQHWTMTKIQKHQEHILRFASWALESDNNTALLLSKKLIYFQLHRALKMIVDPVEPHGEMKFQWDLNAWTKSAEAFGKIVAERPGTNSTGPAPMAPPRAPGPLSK
- Procedure text: co-IP; purified SMARCAD1 fragments (CUE1,2, CUE1) and KAP1 RBCC, 9.6μg of each in a 240μL binding reaction, 1 hour at 4°C; immunoprecipitated with anti-FLAG M2 affinity gel for 3 hours at 4°C
- Condition parameters: both partners purified
Readout kind: binding result

{"columns": ["Binder", "Readout kind", "Endpoint result"],
 "data": [
  ["FLAG-tagged SMARCAD1 CUE1,2 fragment P170A (domain or fragment, human, UniProt Q9H4L7 95-347, looked up, SMARCAD1, human, CUE1,2 fragment S95-N347; source: E. coli, purified; construct generated by GenScript) SSDSEDVVSPNCSNTVQEKTFNKDTVIIVSEPSEDEESQGLPTMARRNDDISELEDLSELEDLKDAKLQTLKELFAQRSDNDLLKLIESTSTMDGAIAAALLMFGDAGGGPRKRKLSSSSEPYEEDEFNDDQSIKKTRLDHGEESNESAESSSNWEKQESIVLKLQKEFPNFDKQELREVLKEHEWMYTEALESLKVFAEDQDMQYVSQSEVPNGKEVSSRSQNYPKNATKTKLKQKFSMKAQNGFNKKRKKN", "binding result", "binds"],
  ["FLAG-tagged SMARCAD1 CUE1,2 fragment D188A (domain or fragment, human, UniProt Q9H4L7 95-347, looked up, SMARCAD1, human, CUE1,2 fragment S95-N347; source: E. coli, purified; construct generated by GenScript) SSDSEDVVSPNCSNTVQEKTFNKDTVIIVSEPSEDEESQGLPTMARRNDDISELEDLSELEDLKDAKLQTLKELFPQRSDNDLLKLIESTSTMAGAIAAALLMFGDAGGGPRKRKLSSSSEPYEEDEFNDDQSIKKTRLDHGEESNESAESSSNWEKQESIVLKLQKEFPNFDKQELREVLKEHEWMYTEALESLKVFAEDQDMQYVSQSEVPNGKEVSSRSQNYPKNATKTKLKQKFSMKAQNGFNKKRKKN", "binding result", "binds"],
  ["FLAG-tagged SMARCAD1 CUE1,2 fragment L196A (domain or fragment, human, UniProt Q9H4L7 95-347, looked up, SMARCAD1, human, CUE1,2 fragment S95-N347; source: E. coli, purified; construct generated by GenScript) SSDSEDVVSPNCSNTVQEKTFNKDTVIIVSEPSEDEESQGLPTMARRNDDISELEDLSELEDLKDAKLQTLKELFPQRSDNDLLKLIESTSTMDGAIAAALAMFGDAGGGPRKRKLSSSSEPYEEDEFNDDQSIKKTRLDHGEESNESAESSSNWEKQESIVLKLQKEFPNFDKQELREVLKEHEWMYTEALESLKVFAEDQDMQYVSQSEVPNGKEVSSRSQNYPKNATKTKLKQKFSMKAQNGFNKKRKKN", "binding result", "binds"],
  ["FLAG-tagged SMARCAD1 CUE1,2 fragment (S95-N347), wild type (domain or fragment, human, UniProt Q9H4L7 95-347, looked up, SMARCAD1, human, residues S95-N347 encompassing both CUE domains; source: E. coli BL-21 CodonPlus (DE3)-RIL, purified (Ni-NTA, Mono Q if required)) SSDSEDVVSPNCSNTVQEKTFNKDTVIIVSEPSEDEESQGLPTMARRNDDISELEDLSELEDLKDAKLQTLKELFPQRSDNDLLKLIESTSTMDGAIAAALLMFGDAGGGPRKRKLSSSSEPYEEDEFNDDQSIKKTRLDHGEESNESAESSSNWEKQESIVLKLQKEFPNFDKQELREVLKEHEWMYTEALESLKVFAEDQDMQYVSQSEVPNGKEVSSRSQNYPKNATKTKLKQKFSMKAQNGFNKKRKKN", "binding result", "binds"],
  ["FLAG-tagged SMARCAD1 CUE1,2 fragment Q171A (domain or fragment, human, UniProt Q9H4L7 95-347, looked up, SMARCAD1, human, CUE1,2 fragment S95-N347; source: E. coli, purified; construct generated by GenScript) SSDSEDVVSPNCSNTVQEKTFNKDTVIIVSEPSEDEESQGLPTMARRNDDISELEDLSELEDLKDAKLQTLKELFPARSDNDLLKLIESTSTMDGAIAAALLMFGDAGGGPRKRKLSSSSEPYEEDEFNDDQSIKKTRLDHGEESNESAESSSNWEKQESIVLKLQKEFPNFDKQELREVLKEHEWMYTEALESLKVFAEDQDMQYVSQSEVPNGKEVSSRSQNYPKNATKTKLKQKFSMKAQNGFNKKRKKN", "binding result", "binds"],
  ["SMARCAD1 CUE1 fragment (S95-E237), wild type (domain or fragment, human, UniProt Q9H4L7 95-237, looked up, SMARCAD1, human, residues S95-E237 spanning only the first CUE domain; also called wild type CUE1 fragment; source: E. coli BL-21 CodonPlus (DE3)-RIL, purified (Ni-NTA, Mono Q if required)) SSDSEDVVSPNCSNTVQEKTFNKDTVIIVSEPSEDEESQGLPTMARRNDDISELEDLSELEDLKDAKLQTLKELFPQRSDNDLLKLIESTSTMDGAIAAALLMFGDAGGGPRKRKLSSSSEPYEEDEFNDDQSIKKTRLDHGE", "binding result", "binds"]
]}
